measured_target: A2A receptor (Homo sapiens, UniProt P29274)
Construct: host or cells: HEK-293
Sequence (P29274 whole entry): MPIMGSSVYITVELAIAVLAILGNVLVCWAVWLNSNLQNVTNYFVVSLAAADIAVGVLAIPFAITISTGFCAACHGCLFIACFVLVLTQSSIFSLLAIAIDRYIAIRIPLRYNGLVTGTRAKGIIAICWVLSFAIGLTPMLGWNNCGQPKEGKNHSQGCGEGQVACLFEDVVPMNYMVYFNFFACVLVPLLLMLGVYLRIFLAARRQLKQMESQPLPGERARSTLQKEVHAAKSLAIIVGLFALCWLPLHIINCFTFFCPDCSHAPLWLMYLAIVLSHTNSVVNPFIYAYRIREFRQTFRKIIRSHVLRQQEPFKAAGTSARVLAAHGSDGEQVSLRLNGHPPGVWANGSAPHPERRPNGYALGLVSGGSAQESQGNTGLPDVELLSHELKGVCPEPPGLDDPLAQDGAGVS
measurement_notes: A2aR antagonism IC50, cAMP TR-FRET (Lance Ultra) in HEK-293 cells, NECA as agonist;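 further: compounds tested from 10 µM down to 0.08 nM in buffer with Rolipram at room temperature, TR-FRET cAMP signal read 1 h after adding Eu-cAMP tracer and ULight anti-cAMP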
Assay type: cell-based
experimental_setup: A2AR IC50 (nM) (@5 nM NECA), HEK-293 cells expressing A2A receptor; agonist NECA 5 nM (EC90); inhibition of cAMP
value_type: IC50 (nM)

I = CCn1ccc(CCNc2nc3c(C)c(C)nn3c(N)c2C#N)n1 [Example 29]
II = CCc1c(C(F)F)nn2c(N)c(C#N)c(NCCc3ccn(C(C)(C)CO)n3)nc12 [Example 48]
III = CCc1c(C(F)F)nn2c(N)c(C#N)c(NCCc3cccc(CO)n3)nc12 [Example 56]
IV = Cc1cccc(CN(C)c2nc3c(C)c(C)nn3c(N)c2C#N)n1 [Example 8]
// query Lab note: IC50 ranking, ascending, for the listed compounds. Submit the labels in the order that the ranking request calls for.
// result I, II, III, IV
(I: 1 nM, II: 2.2 nM, III: 3.3 nM, IV: 46 nM)

---

measured_target: A2B receptor (Homo sapiens)
Sequence (P29275 1-332): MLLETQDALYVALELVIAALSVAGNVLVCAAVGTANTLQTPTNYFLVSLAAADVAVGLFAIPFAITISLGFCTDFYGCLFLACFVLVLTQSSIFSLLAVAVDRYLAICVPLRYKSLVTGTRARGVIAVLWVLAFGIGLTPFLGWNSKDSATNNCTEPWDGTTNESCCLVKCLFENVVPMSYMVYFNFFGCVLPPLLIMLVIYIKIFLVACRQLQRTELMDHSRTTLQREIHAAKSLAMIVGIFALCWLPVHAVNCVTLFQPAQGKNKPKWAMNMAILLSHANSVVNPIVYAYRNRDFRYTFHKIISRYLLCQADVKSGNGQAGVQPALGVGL
measurement_notes: A2bR antagonism IC50, cAMP TR-FRET in HEK-293 cells, high concentration of adenosine (30 μM)
experimental_setup: A2BR IC50 (nM) (@30 μM Adenosine), HEK-293 cells expressing A2B receptor; agonist adenosine 30 μM; 2% HSA; inhibition of cAMP
value_type: IC50 (nM)

Some compounds with recorded IC50:
1. CCc1c(C)nn2c(N)c(C#N)c(NCCc3ccc(F)c(CO)n3)nc12 ... 1620
2. CCCc1c(C)nn2c(N)c(C#N)c(NCCc3cccn(CCCO)c3=O)nc12 ... 2950

I = Cc1nn2c(N)c(C#N)c(NCCc3ccn(C4CCC4CN)n3)nc2c1Cl (stereo not drawn)
II = Cc1nn2c(N)c(C#N)c(NCCc3cccn(CCCN)c3=O)nc2c1C
// query Compare the recorded IC50 of I and II ; state which is larger. Identify your pick by its label.
// result II

1 = CCc1c(C)nn2c(N)c(C#N)c(NCCc3cccn(CCCSC)c3=O)nc12
2 = CCc1c(C)nn2c(N)c(C#N)c(NCCc3ccn(C4CCCC4CO)n3)nc12 (stereo not drawn)
// query Form: Entry with minimum IC50 (choose one): 1 / 2 Identify your pick by its label.
// result 2

---

measurement_notes: Pharmacokinetic study in rats
Type: in vivo, male Sprague-Dawley (SD) rats
experimental_setup: male, Sprague-Dawley, plasma, po; Rat, p.o, 10 mg/kg; read-out: Cmax (head Co*/)
value_type: Cmax (ng/mL)
State just the number; it will be interpreted in ng/mL.

// query Given the molecule Cc1cccc(CCNc2nc3c(C)c(C)nn3c(N)c2C#N)n1 , what is its reported Cmax?
// result 4.2

---

measurement_notes: Pharmacokinetic study in mice
Assay type: in vivo, CD1 mice
experimental_setup: CD1, mouse, plasma, 100 mg/kg oral
value_type: AUC(0-t) (µg·h/mL)
State just the number; it will be interpreted in µg·h/mL.

// query Given the molecule CCc1c(C)nn2c(N)c(C#N)c(NCCc3ccn(C4COCC4CO)n3)nc12 (single isomer, unassigned; (-)) [Example 122b] , what is its reported AUC(0-t)?
// result 10.5

---

measurement_notes: Pharmacokinetic study in rats
Format: in vivo, male Sprague-Dawley (SD) rats
experimental_setup: male, Sprague-Dawley, plasma, iv; Rat, i.v, 5 mg/kg; read-out: Vss
value_type: Vd (L/kg)
State just the number; it will be interpreted in L/kg.

// query Given the molecule CCc1c(C)nn2c(N)c(C#N)c(NCCc3ccn(C4COCC4CO)n3)nc12 (single isomer, unassigned; (-)) [Example 122b] , what is its reported Vd?
// result 1.58

---

measurement_notes: Pharmacokinetic study in rats
Format: in vivo, male Sprague-Dawley (SD) rats
experimental_setup: male, Sprague-Dawley, plasma, iv; Rat, i.v, 3 mg/kg
Description: Intravenous (i.v) and Oral formulations for pharmacokinetic (PK) studies was formulated in different vehicles and excipients to achieve the desirable solubility for intravenous and Oral routes of administration. Appropriate amount of the test compound was weighed and dissolved in required volume of the vehicles, followed by vertexing for a few seconds to dissolve the compound. […] Plasma samples were analysed for a fit-for purpose LC-MS/MS method with a lower limit of quantification. […]
value_type: clearance (mL/min/kg)
State just the number; it will be interpreted in mL/min/kg.

// query Given the compound Cc1cccc(CCNc2nc3c(C)c(C)nn3c(N)c2C#N)n1 , what is its reported clearance?
// result 69

---

measurement_notes: Pharmacokinetic study in dogs
Type: in vivo, male Beagle dogs
experimental_setup: male, Beagle, plasma, po; p.o, 30 mg/kg, line stands under Dog; read-out: Cmax (head Co*/)
value_type: Cmax (µg/mL)
State just the number; it will be interpreted in µg/mL.

// query Given the compound CCc1c(C)nn2c(N)c(C#N)c(NCCc3ccn(C4(CO)CC4)n3)nc12 [Example 39] , what is its reported Cmax?
// result 0.201

---

measured_target: A2A receptor (Homo sapiens, UniProt P29274)
Construct: host or cells: HEK-293
measurement_notes: A2aR antagonism IC50, cAMP TR-FRET in HEK-293 cells, high concentration of adenosine (30 μM);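 further: compounds added 10 min before adenosine, then 30 min stimulation at room temperature in buffer with 100 µM rolipram and 30 µM EHNA, signal read 1 h after detection reagents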
Format: cell-based
experimental_setup: A2AR IC50 (nM) (@30 μM Adenosine), HEK-293 cells expressing A2A receptor; agonist adenosine 30 μM; 2% HSA; inhibition of cAMP
value_type: IC50 (nM)
State just the number; it will be interpreted in nM.

// query Given the compound Cc1nn2c(N)c(C#N)c(NCCc3nc(C4(CO)CC4)cs3)nc2c1Cl , what is its reported IC50?
// result 574

---

measured_target: A2B receptor (Homo sapiens, UniProt P29275)
measurement_notes: A2bR antagonism IC50, cAMP TR-FRET in HEK-293 cells, high concentration of adenosine (30 μM);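 further: compounds preincubated 10 min with cells, then adenosine stimulation 30 min at room temperature in buffer with Rolipram 100 µM and EHNA 30 µM, TR-FRET read after 1 h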
experimental_setup: A2BR IC50 (nM) (@30 μM Adenosine), HEK-293 cells expressing A2B receptor; agonist adenosine 30 μM; 2% HSA; inhibition of cAMP
value_type: IC50 (nM)

1. CCc1c(C)nn2c(N)c(C#N)c(NCCc3ccn(C4(CN)CC4)n3)nc12 ... 2470

a = Cc1nn2c(N)c(C#N)c(NCCc3ccn(C4CCC4CO)n3)nc2c1Cl (centres unmarked)
b = Cc1nn2c(N)c(C#N)c(NCCc3cc(C)n(C4(CO)CC4)n3)nc2c1Cl
c = CCc1c(C(F)F)nn2c(N)c(C#N)c(NCCc3ccn(C4(CO)CC4)n3)nc12
d = CCc1c(C)nn2c(N)c(C#N)c(NCCc3ccn(CC4CC(O)C4)n3)nc12 (centres unmarked)
// query Hey, quick one: sort these by IC50, low to high? Submit the labels in the order that the ranking request calls for.
// result d, a, b, c

---

measurement_notes: Cell based permeability/efflux Caco-2 assay
Assay type: in vitro ADME
experimental_setup: human; Caco-2, 10 μM, basolateral to apical
value_type: Papp B→A at 120 min, 10 µM (×10⁻⁶ cm/s)

1. Cc1cccc(CCNc2nc3c(C)c(C)nn3c(N)c2C#N)n1 ... 19.5
2. CCc1c(C)nn2c(N)c(C#N)c(NCCc3ccn(C4(CO)CC4)n3)nc12 ... 18.5
3. CCc1c(C)nn2c(N)c(C#N)c(NCCc3ccn(C4COCC4CO)n3)nc12 (single isomer, unassigned; (-)) [Example 122b] ... 15.9

---

measurement_notes: Pharmacokinetic study in rats
Format: in vivo, male Sprague-Dawley (SD) rats
experimental_setup: male, Sprague-Dawley, plasma, po; Rat, p.o, 100 mg/kg; read-out: Tmax (head Tma)
Method: Intravenous (i.v) and Oral formulations for pharmacokinetic (PK) studies was formulated in different vehicles and excipients to achieve the desirable solubility for intravenous and Oral routes of administration. Appropriate amount of the test compound was weighed and dissolved in required volume of the vehicles, followed by vertexing for a few seconds to dissolve the compound. […] Plasma samples were analysed for a fit-for purpose LC-MS/MS method with a lower limit of quantification. […]
value_type: Tmax (min)
State just the number; it will be interpreted in min.

// query Given the molecule CCc1c(C)nn2c(N)c(C#N)c(NCCc3ccn(C4(CO)CC4)n3)nc12 , what is its reported Tmax?
// result 12
